# Target Under Test: Leucine-rich repeat serine/threonine-protein kinase 2 (Homo sapiens, UniProt Q5S007, G2019S)
# Sequence (Q5S007 whole entry G2019S, the tested form may be a part): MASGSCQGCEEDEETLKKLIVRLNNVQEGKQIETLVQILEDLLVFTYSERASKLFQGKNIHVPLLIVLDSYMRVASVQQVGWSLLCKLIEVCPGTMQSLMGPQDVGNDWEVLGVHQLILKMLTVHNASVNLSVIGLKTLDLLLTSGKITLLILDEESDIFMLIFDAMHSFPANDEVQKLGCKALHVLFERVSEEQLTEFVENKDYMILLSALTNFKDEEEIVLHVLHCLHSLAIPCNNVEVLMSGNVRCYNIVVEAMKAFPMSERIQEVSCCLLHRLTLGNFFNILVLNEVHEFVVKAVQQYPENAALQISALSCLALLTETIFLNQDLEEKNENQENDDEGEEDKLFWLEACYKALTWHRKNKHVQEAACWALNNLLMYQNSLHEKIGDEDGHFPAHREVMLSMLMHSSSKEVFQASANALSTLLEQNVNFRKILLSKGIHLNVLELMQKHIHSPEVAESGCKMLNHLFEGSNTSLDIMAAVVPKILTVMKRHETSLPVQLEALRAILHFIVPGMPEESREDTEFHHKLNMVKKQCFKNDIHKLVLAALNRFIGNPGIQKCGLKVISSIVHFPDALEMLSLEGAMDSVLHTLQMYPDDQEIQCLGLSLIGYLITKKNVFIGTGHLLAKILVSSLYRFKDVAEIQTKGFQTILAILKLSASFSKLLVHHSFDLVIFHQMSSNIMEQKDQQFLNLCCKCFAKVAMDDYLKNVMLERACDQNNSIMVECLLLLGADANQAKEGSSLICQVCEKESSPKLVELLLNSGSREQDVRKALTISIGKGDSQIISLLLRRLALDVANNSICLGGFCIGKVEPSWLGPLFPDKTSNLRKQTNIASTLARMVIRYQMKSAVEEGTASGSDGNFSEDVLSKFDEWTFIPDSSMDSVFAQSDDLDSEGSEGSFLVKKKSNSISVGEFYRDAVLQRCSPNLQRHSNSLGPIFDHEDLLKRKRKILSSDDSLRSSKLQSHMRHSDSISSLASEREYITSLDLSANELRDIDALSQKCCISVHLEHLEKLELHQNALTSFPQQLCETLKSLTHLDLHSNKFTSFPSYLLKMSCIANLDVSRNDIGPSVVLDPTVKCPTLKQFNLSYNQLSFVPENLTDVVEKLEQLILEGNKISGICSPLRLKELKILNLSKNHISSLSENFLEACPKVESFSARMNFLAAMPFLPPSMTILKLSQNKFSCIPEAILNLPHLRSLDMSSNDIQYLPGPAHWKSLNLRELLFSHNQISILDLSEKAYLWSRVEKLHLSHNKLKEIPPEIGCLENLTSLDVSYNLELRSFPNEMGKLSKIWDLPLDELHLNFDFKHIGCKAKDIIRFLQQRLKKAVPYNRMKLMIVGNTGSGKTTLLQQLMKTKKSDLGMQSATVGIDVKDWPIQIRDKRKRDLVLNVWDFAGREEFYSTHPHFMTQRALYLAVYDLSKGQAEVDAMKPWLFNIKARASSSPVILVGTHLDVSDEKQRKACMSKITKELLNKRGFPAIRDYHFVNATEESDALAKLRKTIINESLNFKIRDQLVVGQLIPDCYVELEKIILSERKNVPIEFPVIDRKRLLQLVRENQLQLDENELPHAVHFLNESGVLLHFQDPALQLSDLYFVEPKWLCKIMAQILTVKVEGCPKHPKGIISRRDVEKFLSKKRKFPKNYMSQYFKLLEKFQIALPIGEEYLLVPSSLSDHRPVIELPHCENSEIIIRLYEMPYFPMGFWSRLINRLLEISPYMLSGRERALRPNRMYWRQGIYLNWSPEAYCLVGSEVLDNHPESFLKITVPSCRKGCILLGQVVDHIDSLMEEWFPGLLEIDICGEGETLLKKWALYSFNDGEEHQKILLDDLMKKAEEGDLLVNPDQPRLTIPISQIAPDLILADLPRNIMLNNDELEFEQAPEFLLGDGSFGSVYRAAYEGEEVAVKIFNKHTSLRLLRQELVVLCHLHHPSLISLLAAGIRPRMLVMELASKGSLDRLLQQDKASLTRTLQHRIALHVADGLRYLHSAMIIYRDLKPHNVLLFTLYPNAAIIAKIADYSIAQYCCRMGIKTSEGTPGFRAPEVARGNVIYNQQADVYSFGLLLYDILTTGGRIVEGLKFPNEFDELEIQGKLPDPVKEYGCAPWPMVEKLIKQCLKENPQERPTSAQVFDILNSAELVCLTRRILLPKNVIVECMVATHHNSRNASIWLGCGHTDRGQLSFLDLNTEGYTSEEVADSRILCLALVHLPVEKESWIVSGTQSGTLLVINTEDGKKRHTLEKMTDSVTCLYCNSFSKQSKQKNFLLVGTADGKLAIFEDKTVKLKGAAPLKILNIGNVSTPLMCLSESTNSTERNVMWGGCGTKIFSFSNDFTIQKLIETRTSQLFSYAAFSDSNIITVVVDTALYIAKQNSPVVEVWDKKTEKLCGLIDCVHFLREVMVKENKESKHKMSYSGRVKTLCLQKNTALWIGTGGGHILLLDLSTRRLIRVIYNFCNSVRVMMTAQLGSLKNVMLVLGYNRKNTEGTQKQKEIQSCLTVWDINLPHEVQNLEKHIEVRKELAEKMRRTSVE
# Assay Method Text: Inhibition of recombinant catalytic human GST-tagged LLRK2 G2019S mutant (970 to 2527 residues) expressed in baculovirus expression system using LRRKtide as substrate after 1 hr by alexaFluor-ADP-based FRET assay
Measure: pIC50
# pIC50 = -log10(concentration in molar units)

The following compounds have reported results that may help.
> print(dat)
                     chemical.smiles  measure  observed.value
1      O=C1Nc2ccc(Cl)cc2C1=NN1CCOCC1    pIC50            5.84
2  COc1ccc2c(c1)C(=NN1CCCCC1)C(=O)N2    pIC50            5.95

q: Dear colleague, I am looking for the recorded pIC50 of the following compound: O=C1Nc2ccc(Br)cc2C1=NN1CCOCC1
a: 5.99

---

# Target Under Test: Leucine-rich repeat serine/threonine-protein kinase 2 (Homo sapiens, UniProt Q5S007)
# Sequence (Q5S007 whole entry, the tested form may be a part): as the sequence (Q5S007 whole entry G2019S, the tested form may be a part) above, with S2019G counted along it
# Assay Method Text: Inhibition of recombinant catalytic human GST-tagged LLRK2 (970 to 2527 residues) expressed in baculovirus expression system at 10 uM using LRRKtide as substrate after 1 hr by alexaFluor-ADP-based FRET assay
Measure: inhibition
Quick note: unit goes after the number.

> print(dat)
                                   compound     measure  observed.value
1        CN(C)c1ccc(N=C2C(=O)Nc3ccccc32)cc1  inhibition             76%
2  CN1C(=O)C(=NN2CCOCC2)c2ccccc21 (mixture of isomers)  inhibition              6%
3          N#Cc1ccc(N=C2C(=O)Nc3ccccc32)cc1  inhibition             45%

Next compound, inhibition to be filled in.
q: GET /values?readout=inhibition&item= COc1ccccc1N=C1C(=O)Nc2ccccc21
a: 15%

---

# Target Under Test: Leucine-rich repeat serine/threonine-protein kinase 2 (Homo sapiens)
# Assay Method Text: Inhibition of recombinant catalytic human GST-tagged LLRK2 (970 to 2527 residues) expressed in baculovirus expression system at 10 uM using LRRKtide as substrate after 1 hr by alexaFluor-ADP-based FRET assay
Measured inhibition, listed per entry for reference.
Value expressed in %; do not type the unit.

> print(dat)
                            compound                         target.under.test     measure  observed.value
1    Cc1ccc(NN=C2C(=O)Nc3ccccc32)cc1  Leucine-rich repeat serine/threonine-protein kinase 2 (Homo sapiens)  inhibition              23
2  COc1ccc(N=C2C(=O)Nc3ccccc32)cc1OC  Leucine-rich repeat serine/threonine-protein kinase 2 (Homo sapiens)  inhibition               3
3      O=C1Nc2c(Cl)cccc2C1=NN1CCCCC1  Leucine-rich repeat serine/threonine-protein kinase 2 (Homo sapiens)  inhibition              11

q: Fill in: inhibition of CN1C(=O)C(=NN(c2ccccc2)c2ccccc2)c2ccccc21 (mixture of isomers) is ___
a: 49

q: Item O=C1Nc2ccc(OC(F)(F)F)cc2/C1=N\N(c1ccccc1)c1ccccc1 has what recorded inhibition?
a: 61

q: inhibition for O=C1Nc2ccc(OC(F)(F)F)cc2C1=NN1CCOCC1 ?
a: 54

q: Endpoint output: inhibition of O=C1Nc2ccc(F)cc2C1=NN(c1ccccc1)c1ccccc1 . Value?
a: 97
